molecular target: BACE2 (Rattus norvegicus, UniProt Q6IE75); construct: endogenous cellular BACE2 in the Ins1e rat cell line; endogenous in cells; test: Assay for BACE inhibition by measuring cellular TMEM27 cleavage; settings: INS-TMEM27 cells (INS1e-derived); shed TMEM27 by ELISA; read-out: BACE2 cell act. IC50
Sequence (Q6IE75 63-514): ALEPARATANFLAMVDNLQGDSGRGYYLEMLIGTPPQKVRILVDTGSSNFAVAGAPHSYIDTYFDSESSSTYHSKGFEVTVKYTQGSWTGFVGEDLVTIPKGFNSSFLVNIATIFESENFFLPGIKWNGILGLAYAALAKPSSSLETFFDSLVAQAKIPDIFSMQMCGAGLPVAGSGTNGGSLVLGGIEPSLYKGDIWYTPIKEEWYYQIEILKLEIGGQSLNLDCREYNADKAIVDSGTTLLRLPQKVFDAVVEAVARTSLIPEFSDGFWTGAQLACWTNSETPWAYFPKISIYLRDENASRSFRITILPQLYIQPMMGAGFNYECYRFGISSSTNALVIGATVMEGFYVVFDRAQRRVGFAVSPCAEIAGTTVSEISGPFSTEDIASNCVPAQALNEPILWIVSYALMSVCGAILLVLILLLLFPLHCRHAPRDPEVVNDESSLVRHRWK
quantity-measured: IC50 (nM)

Example entries begin here.
>  <molecule>
CC1(C)OC(N)=N[C@](C)(c2cc(NC(=O)c3cnc(C(F)(F)F)cn3)ccc2F)C1(F)F [Example 35]

>  <unit-text>
nM

>  <IC50>
4750

$$$$
>  <molecule>
C[C@]1(c2cc(NC(=O)c3ccc(OCF)cn3)ccc2F)N=C(N)OCC1(F)F [Example 42]

>  <unit-text>
nM

>  <IC50>
300

$$$$

a. C[C@]1(c2cc(NC(=O)c3nn(CC(F)F)cc3Cl)ccc2F)N=C(N)OCC1(F)F [Example 68]
b. C[C@]1(c2cc(NC(=O)c3ccc(Cl)cn3)ccc2Cl)N=C(N)OCC1(F)F [Example 50]
Prompt: Sorting by IC50 in descending order, would a or b appear first? Choose, then provide that item's label.
Completion: a
(a: 230 nM, b: 24 nM)

1. CC1(C)OC(N)=N[C@](C)(c2cc(NC(=O)c3ccc(OC(F)F)cn3)ccc2F)C1(F)F [Example 27]
2. C[C@]1(c2cc(NC(=O)c3ccccn3)ccc2F)N=C(N)OCC1(F)F [Example 9]
3. C[C@]1(c2cc(NC(=O)c3ccc(OCC(F)F)cn3)ccc2F)N=C(N)OCC1(F)F [Example 45]
4. CC1(C)OC(N)=N[C@](C)(c2cc(NC(=O)c3ccc(OCF)cn3)ccc2F)C1(F)F [Example 26]
Prompt: In this exercise, place the 4 molecules in ascending sequence of their recorded IC50. Thanks in advance for listing the labels in the requested order.
Completion: 2, 4, 1, 3

The reported measurements were obtained from patent US8389513B2.
